Where these numbers come from: PubChem BioAssay AID1159580

Assay: chemical genetic growth profiling, strain panel (AID 1159580);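 note: tested at 20 µM; growth read once vehicle control cultures reached saturation at 30 °C; lower values mean less growth of the strain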
Conditions: S. cerevisiae deletion strains, growth OD, locus YLR320W, strain mms22, active compounds read low
Among all 5,500 compounds or so, about 2,000 (36%) were called active. About 18% were inconclusive and are not listed. This is one part of the list.
# label = TRUE if normalized growth < 1 else FALSE

Consider CC(CCC(=O)O)[C@H]1CCC2C3CC[C@@H]4CCCC[C@]4(C)C3CC[C@@]21C (some centres not stated) . Does its normalized growth lie strictly below 1?
FALSE

Consider N[C@H](Cc1cc(I)c(Oc2ccc(O)c(I)c2)c(I)c1)C(=O)O . Does its normalized growth lie strictly below 1?
TRUE
